Listing of recorded EC50 by entry.
# Tested on: NCI-H716 cells
# MEASUREMENT PROTOCOL: cells
# Assay type: cell-based, Human
# CONDITIONS USED: Homo sapiens, NCI-H716; read-out: GLP1 sec. EC50

{"COMPOUND": "Clc1ccc(Nc2nnc(Cc3ccncc3)c3ccccc23)cc1 [vatalanib, reference compound]", "ASSAY METRIC": "EC50", "MEASURED": "> 10 µM"}
{"COMPOUND": "CCN(CCCCOC(=O)c1ccc(OC)c(OC)c1)C(C)Cc1ccc(OC)cc1 (stereo not shown) [mebeverine, reference compound]", "ASSAY METRIC": "EC50", "MEASURED": "> 10 µM"}
{"COMPOUND": "Cc1ccc2nc(N)[nH]c(=O)c2c1Sc1ccncc1 [nolatrexed, reference compound]", "ASSAY METRIC": "EC50", "MEASURED": "> 10 µM"}

Attention now shifts to the item below.
Fill in the blank: the reported EC50 of Cc1ccc(Nc2nccc(N(C)c3ccc4c(C)n(C)nc4c3)n2)cc1S(N)(=O)=O [pazopanib, reference compound] is ____.
> 10 µM

* * *

# Test system: nuclear β-catenin in C2C12 cells
# MEASUREMENT PROTOCOL: cells
# Assay type: cell-based
# CONDITIONS USED: assay number 5; concentration response
Mark Not satisfied for WntCondMedia_bCatenin C2C12 IC50/EC50 values under 0.006 µM, and Satisfied for everything at or above.

Here's what some known entries look like.
{"MOLECULE": "CCCN(CCC)C(=O)C(CCC(=O)OCCCN1CCN(CCOC(=O)Cc2c(C)n(C(=O)c3ccc(Cl)cc3)c3ccc(OC)cc23)CC1)NC(=O)c1ccccc1 (centres unmarked)", "CATEGORY": "Satisfied"}
{"MOLECULE": "[O-][n+]1ccccc1SSc1cccc[n+]1[O-]", "CATEGORY": "Satisfied"}
{"MOLECULE": "COCc1c(C(C)C)nc(C(C)C)c(/C=C/[C@@H](O)C[C@@H](O)CC(=O)[O-])c1-c1ccc(F)cc1.[Na+]", "CATEGORY": "Satisfied"}
{"MOLECULE": "CC[C@]1(O)C[C@@H]2CN(CCc3c([nH]c4ccccc34)[C@@](C(=O)OC)(c3cc4c(cc3OC)N(C)[C@H]3[C@@](O)(C(=O)OC)[C@H](OC(C)=O)[C@]5(CC)C=CCN6CC[C@]43[C@@H]65)C2)C1.O=S(=O)(O)O [NCGC00344583-01]", "CATEGORY": "Not satisfied"}
{"MOLECULE": "COc1cc([C@@H]2c3cc4c(cc3[C@@H](O[C@@H]3O[C@@H]5CO[C@@H](C)O[C@@H]5[C@H](O)[C@@H]3O)[C@H]3COC(=O)[C@H]23)OCO4)cc(OC)c1O", "CATEGORY": "Satisfied"}

Given Clc1cc(Cl)c(OCC#CI)cc1Cl , state whether its WntCondMedia_bCatenin C2C12 IC50/EC50 is at least 0.006 µM.
Satisfied

Given CCCCCCCCCCCCCCC[C@H](O)[C@@H](N)CO , state whether its WntCondMedia_bCatenin C2C12 IC50/EC50 is at least 0.006 µM.
Satisfied

Given CN1CC[C@H](c2c(O)cc(O)c3c(=O)cc(-c4ccccc4Cl)oc23)[C@H](O)C1.Cl , state whether its WntCondMedia_bCatenin C2C12 IC50/EC50 is at least 0.006 µM.
Satisfied
